Values compiled from the DeepSol protein solubility set.

assay: soluble on expression in E. coli; label from the status in PepcDB or PDB records
measuredMetric: soluble on expression in E. coli

{"querySequence": "MLNYLFENNCLLCGKEVSPLRSLCENCEEKVLKNGPSFYREVHRKYELFVYSDYTDEIERIIRLYKYHGEVSLSGTLVKLFLKLYSYFPREANLITWVPSSLDSLEDRGFDHMRLLAKRISKELGIPFDAVLENVSEGRQVEKSKEERKRTGRFICKKDPPQNVILIDDVLTTGTSVRDCVETLFRNGVSKVFVYVLAKTRR", "measuredMetric": "soluble on expression in E. coli", "resultValue": "not soluble"}
{"querySequence": "MMINVHSYESMGTFDGPGLRLVVFLQGCNFRCLYCANPDTIAGKGGTPTPPEEIVRMAMSQRPFFGKRGGITFSGGEPTFQAKALVPLVRELKERGIHVCLDSNGGLWNEDVEELFKLTDLVLLDIKEFNPNRHQTLTGRSNEQTIRTAAWLEEQGKPFWLRYVLVPGYSDFEEDIRALGEALGKYKMIQRVEILPYHTLGVHKYEAMGQEYKMKGVKENTPEQLEKAAEVFKEYFTTVVVNLEHHHHHH", "measuredMetric": "soluble on expression in E. coli", "resultValue": "soluble"}
{"querySequence": "MLDDTGERIIPKNMKPMNGMLLEHLARYYFSTPYASGRVLDIACGTGYGSVMVAKTRKTEVDQVLGVDFDADVIHYAKQNYYHPKVSFLVGDAMDPYLRNQIGTFDTILSFETIEHVKDDRLFIERMRQLLKKDGTLVLSTPFGQGRGKPSDEPFHYHQLTEEEFRSLFDSFSEKEVFYQRGVTIEPKRTNVHYAFGVAVCKKLEHHHHHH", "measuredMetric": "soluble on expression in E. coli", "resultValue": "soluble"}
{"querySequence": "MSLQKPKIAFIDDEPRILRSLKMHFRQSHDVFITTDASELMKYVSEHDVQVVISDQRMPDKQGTEVLRDIKAASPNTLRILLTGYADLNAVIDSVNEGEIYRYITKPWQNDELKQIVNKATEIAQQTQEITQNTEGHHHHHH", "measuredMetric": "soluble on expression in E. coli", "resultValue": "not soluble"}
{"querySequence": "YSQVQLPFNDLLYIETSSRSHRVVLYTEKDRMEFTATLGDILKQEPRLFQCHRSFLVNPLNIFKVDRIDRLVYFQNGTTCLVSRNKVRDIVSIVDKYQKDRKR", "measuredMetric": "soluble on expression in E. coli", "resultValue": "not soluble"}
{"querySequence": "MSPTLSILIPVYKRDCRRLLEELYKQAEELSVGYEIILGDDCSGEPYTSQYIAYEQEGLCRLVSAEENMGAGRLRNRLAEEAQGEQLLILDSDTLPASPDFIERYLRHASGTTVVCGGFVYPPKSTNPLRQRYGAEVESRSAEERARKPHSGFISMAFMIPRKQMLATGFPPNMGMGYEDILFGERLRQAGIPILHIDNPVEHYHCDTAEGFLATTRSYLDNLYCHREELAELVSLLRAYNLLKRLHLMRMVAALWPLIRSSLEKQLTGAKPSLLLFSLYKLLYVASLSLVCAEKS", "measuredMetric": "soluble on expression in E. coli", "resultValue": "not soluble"}
{"querySequence": "KVNNIMKKLLSSMILIWGGLISFSNNITGPRHRIEISAGFINDRQNATMGNNIFISNSISYIPEWKIQVNKKFDVTFGPKVVLNFSNFITVSNGTAKAASSSNNANPVTITPSLILGGELDFNYSVKENLKIYTGLEVGTGIGFQISTVGSNVQNPEFRTSSKIALGVKINEKYNIAIYTADIKGLLGLEAGYTF", "measuredMetric": "soluble on expression in E. coli", "resultValue": "not soluble"}
